# System: HT-29
# Protocol Summary: In vitro cytotoxicity (SRB), percentage growth inhibition, HT-29
# Assay type: cell-based, human
# Test Parameters: HT-29 (colon), 10^−6 mol/L, 48 hours
So I've got a bunch of compounds here, and I need their percentage growth inhibition HT-29 values.
Output should be the measured figure followed by the unit it is expressed in.

Documented percentage growth inhibition HT-29 of COc1cc2c(cc1OCCCN1CCN(CCCN3C(=O)c4cccc5cccc(c45)C3=O)CC1)N=C[C@@H]1CCCN1C2=O [VIIId] : 63%

Query COc1cc2c(cc1OCCCCN1CCN(CCCCN3C(=O)c4cccc5cccc(c45)C3=O)CC1)N=C[C@@H]1CCCN1C2=O [VIIIe] yields percentage growth inhibition HT-29 of 67%

The value of percentage growth inhibition HT-29 measured for the compound COc1cc2c(cc1OCCCCN1CCN(CCN3C(=O)c4cccc5cccc(c45)C3=O)CC1)N=C[C@@H]1CCCN1C2=O [VIIIc] turned out to be 80%

percentage growth inhibition HT-29 measured on COc1cc2c(cc1OCCCN1CCN(CCN3C(=O)c4cccc5cccc(c45)C3=O)CC1)N=C[C@@H]1CCCN1C2=O [VIIIb] = 91%

###

# System: CT-DNA
# Protocol Summary: DNA Thermal Denaturation Studies
# Type: binding
# Test Parameters: 18 h at 37° C.; 1:5 [PBD]/[DNA], CT-DNA 100 μM, ligand 20 μM, sodium phosphate buffer pH 7.00; values ±0.1–0.2° C.
# YES = Induced […]Tm ° C. after incubation at 37° C. 18 h below 20 °C (exclusive); NO = Induced […]Tm ° C. after incubation at 37° C. 18 h at/above 20 °C

Request: In plain terms, does COc1cc2c(cc1OCCCCN1CCN(CCN3C(=O)c4cccc5cccc(c45)C3=O)CC1)N=C[C@@H]1CCCN1C2=O come in under 20 °C for Induced […]Tm ° C. after incubation at 37° C. 18 h?
Result: NO

Request: Does the reported Induced […]Tm ° C. after incubation at 37° C. 18 h of COc1cc2c(cc1OCCCCN1CCN(CCCCN3C(=O)c4cccc5cccc(c45)C3=O)CC1)N=C[C@@H]1CCCN1C2=O stay below 20 °C?
Result: NO

Request: In the record for COc1cc2c(cc1OCCN1CCN(CCN3C(=O)c4cccc5cccc(c45)C3=O)CC1)N=C[C@@H]1CCCN1C2=O , is Induced […]Tm ° C. after incubation at 37° C. 18 h less than 20 °C?
Result: NO

Request: In plain terms, does COc1cc2c(cc1OCCCN1CCN(CCCN3C(=O)c4cccc5cccc(c45)C3=O)CC1)N=C[C@@H]1CCCN1C2=O come in under 20 °C for Induced […]Tm ° C. after incubation at 37° C. 18 h?
Result: YES

Request: In plain terms, does COc1cc2c(cc1O)N=CC1CCCN1C2=O (stereo not drawn) [DC-81, reference compound] come in under 20 °C for Induced […]Tm ° C. after incubation at 37° C. 18 h?
Result: YES

Request: I wonder whether COc1cc2c(cc1OCCCN1CCN(CCN3C(=O)c4cccc5cccc(c45)C3=O)CC1)N=C[C@@H]1CCCN1C2=O has Induced […]Tm ° C. after incubation at 37° C. 18 h below 20 °C. Can you tell?
Result: NO
